Target or system: EGFR-L858R (Homo sapiens, UniProt P00533, L858R)
Sequence (P00533 25-1210 L858R): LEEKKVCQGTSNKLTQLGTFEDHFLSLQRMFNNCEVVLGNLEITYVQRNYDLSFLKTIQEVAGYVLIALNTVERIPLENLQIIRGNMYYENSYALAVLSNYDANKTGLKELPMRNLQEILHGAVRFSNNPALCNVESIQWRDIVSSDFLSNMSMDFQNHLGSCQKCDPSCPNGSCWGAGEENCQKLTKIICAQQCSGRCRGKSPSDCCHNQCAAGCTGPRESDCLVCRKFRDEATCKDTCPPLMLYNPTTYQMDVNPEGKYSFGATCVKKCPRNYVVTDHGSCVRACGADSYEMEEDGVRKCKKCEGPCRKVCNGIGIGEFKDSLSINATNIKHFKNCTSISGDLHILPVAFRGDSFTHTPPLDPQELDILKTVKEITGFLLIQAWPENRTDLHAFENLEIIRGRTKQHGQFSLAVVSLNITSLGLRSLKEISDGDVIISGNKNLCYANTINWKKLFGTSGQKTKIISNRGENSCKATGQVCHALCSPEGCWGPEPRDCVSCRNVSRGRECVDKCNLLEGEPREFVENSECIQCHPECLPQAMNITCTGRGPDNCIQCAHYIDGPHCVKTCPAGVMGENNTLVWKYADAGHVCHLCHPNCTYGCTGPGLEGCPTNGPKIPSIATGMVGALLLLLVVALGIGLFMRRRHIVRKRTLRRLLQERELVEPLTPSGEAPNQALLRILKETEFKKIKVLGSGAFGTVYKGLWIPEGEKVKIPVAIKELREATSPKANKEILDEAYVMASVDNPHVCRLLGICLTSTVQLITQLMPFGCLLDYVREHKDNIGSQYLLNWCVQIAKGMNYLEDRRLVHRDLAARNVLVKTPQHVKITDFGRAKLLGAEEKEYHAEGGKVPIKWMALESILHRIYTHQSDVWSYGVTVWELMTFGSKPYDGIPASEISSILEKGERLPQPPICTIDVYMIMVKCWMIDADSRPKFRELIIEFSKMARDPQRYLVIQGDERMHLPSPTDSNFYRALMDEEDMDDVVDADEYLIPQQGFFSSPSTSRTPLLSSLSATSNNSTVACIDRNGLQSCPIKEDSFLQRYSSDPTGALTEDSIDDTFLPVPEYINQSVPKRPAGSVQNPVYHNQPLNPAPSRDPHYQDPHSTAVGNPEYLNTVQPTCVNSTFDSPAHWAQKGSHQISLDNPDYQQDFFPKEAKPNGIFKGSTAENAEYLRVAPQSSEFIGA
Measurement protocol: HTRF KinEASE-TK activity-based assay, EGFR-L858R
pIC50: −log10 of the molar value.
Output yes for pIC50 not less than 9; output no otherwise.

[[record]]
molecule = "C=CC(=O)Nc1cccc(-c2c[nH]c3ncnc(OC)c23)c1"
class_name = "no"

[[record]]
molecule = "C=CC(=O)Nc1cccc(-c2c(-c3ccc(N4CCN(C)CC4)cc3)[nH]c3ncnc(OC4CCCC4)c23)c1 [Compound 19f]"
class_name = "yes"

[[record]]
molecule = "CCC(=O)Nc1cccc(-c2c(-c3ccc(CN4CCN(C)CC4)cc3)[nH]c3ncnc(OC)c23)c1 [Compound 17b]"
class_name = "no"

[[record]]
molecule = "C=CC(=O)Nc1cccc(-c2c(-c3ccc(N4CCN(C)CC4)cc3)[nH]c3ncnc(OC)c23)c1 [Compound 19a]"
class_name = "yes"

[[record]]
molecule = "C=CC(=O)Nc1cccc(-c2c(-c3ccc(CN4CCN(C)CC4)cc3)[nH]c3ncnc(OC)c23)c1 [Compound 17a]"
class_name = "no"

[[record]]
molecule = "C=CC(=O)Nc1cccc(-c2c(-c3ccc(N4CCN(C)CC4)cc3)[nH]c3ncn(C)c(=O)c23)c1 [Compound 29a]"
class_name = "yes"

[[record]]
molecule = "C=CC(=O)Nc1cccc(-c2c(-c3ccc(N4CCN(C)CC4)cc3)[nH]c3ncn(CC(C)C)c(=O)c23)c1 [Compound 29h]"
class_name = "yes"

[[record]]
molecule = "C=CC(=O)Nc1cc(-c2c(-c3ccc(N4CCN(C)CC4)cc3)[nH]c3ncnc(OC)c23)ccc1OC(C)COC (stereo not shown) [Compound 20b]"
class_name = "yes"

[[record]]
molecule = "C=CC(=O)Nc1cc(-c2c(-c3ccc(N4CCN(C)CC4)cc3)[nH]c3ncnc(OC)c23)ccc1OCCOC [Compound 20a]"
class_name = "yes"

[[record]]
molecule = "C=CC(=O)Nc1cccc(-c2c(-c3ccc(N4CCN(C)CC4)cc3)[nH]c3ncnc(OCC)c23)c1 [Compound 19c]"
class_name = "yes"

[[record]]
molecule = "C=CC(=O)Nc1cccc(-c2c(-c3ccc(N4CCN(C)CC4)cc3)[nH]c3nc[nH]c(=O)c23)c1 [Compound 19i]"
class_name = "no"

[[record]]
molecule = "C=CC(=O)Nc1cccc(-c2c(-c3ccccc3)[nH]c3ncnc(OC)c23)c1"
class_name = "no"

[[record]]
molecule = "C=CC(=O)Nc1cccc(-c2c(-c3ccc(N4CCN(C)CC4)cc3)[nH]c3ncn(C(C)C)c(=O)c23)c1 [Compound 29g]"
class_name = "yes"

[[record]]
molecule = "C=CC(=O)Nc1cccc(-c2c(-c3ccc(N4CCN(C)CC4)cc3)[nH]c3ncnc(OCCCSC)c23)c1 [Compound 19e]"
class_name = "yes"

[[record]]
molecule = "C=CC(=O)Nc1cccc(-c2c(-c3ccc(C)cc3)[nH]c3ncnc(OC)c23)c1 [Compound 10a]"
class_name = "no"

[[record]]
molecule = "COc1ncnc2[nH]c(-c3ccc(C)cc3)c(-c3cccc(NC(=O)C=CCN(C)C)c3)c12 [Compound 10b]"
class_name = "no"

[[record]]
molecule = "C=CC(=O)Nc1cccc(-c2c(-c3ccc(N4CCN(C)CC4)cc3)[nH]c3ncn(C4CCCCC4)c(=O)c23)c1 [Compound 29j]"
class_name = "yes"

[[record]]
molecule = "C#CCn1cnc2[nH]c(-c3ccc(N4CCN(C)CC4)cc3)c(-c3cccc(NC(=O)C=C)c3)c2c1=O [Compound 29c]"
class_name = "no"

[[record]]
molecule = "C=CC(=O)Nc1cccc(-c2c(-c3ccc(N4CCN(C)CC4)cc3)[nH]c3ncn(C4CCCC4)c(=O)c23)c1 [Compound 29i]"
class_name = "yes"

[[record]]
molecule = "COc1ncnc2[nH]c(-c3ccc(C)cc3)c(-c3cccc(NC(=O)C=CCN4CCCCC4)c3)c12 [Compound 10c]"
class_name = "no"

[[record]]
molecule = "C=CC(=O)Nc1cccc(-c2c(-c3ccc(N4CCN(C)CC4)cc3)[nH]c3ncnc(OC(C)C)c23)c1 [Compound 19g]"
class_name = "yes"

[[record]]
molecule = "CCC(=O)Nc1cccc(-c2c(-c3ccc(N4CCN(C)CC4)cc3)[nH]c3ncn(C)c(=O)c23)c1 [Compound 19b]"
class_name = "no"

[[record]]
molecule = "C=CC(=O)Nc1cccc(-c2c(-c3ccc(N4CCN(C)CC4)cc3)[nH]c3ncn(CC)c(=O)c23)c1 [Compound 29b]"
class_name = "yes"

[[record]]
molecule = "C=CC(=O)Nc1cccc(-c2c(-c3ccc(N4CCN(C)CC4)cc3)[nH]c3ncn(CCCC)c(=O)c23)c1 [Compound 29d]"
class_name = "yes"

[[record]]
molecule = "CCC(=O)Nc1cccc(-c2c(-c3ccccc3)[nH]c3ncnc(OC)c23)c1"
class_name = "no"

[[record]]
molecule = "C=CC(=O)Nc1cccc(-c2c(-c3ccc(N4CCN(C)CC4)cc3)[nH]c3ncnc(OCC(C)C)c23)c1 [Compound 19h]"
class_name = "yes"

[[record]]
molecule = "C=CC(=O)Nc1cccc(-c2c(-c3ccc(N4CCN(C)CC4)cc3)[nH]c3ncn(CCSC)c(=O)c23)c1 [Compound 29e]"
class_name = "yes"

[[record]]
molecule = "C=CC(=O)Nc1cccc(-c2c(-c3ccc(N4CCN(C)CC4)cc3)[nH]c3ncnc(OCCCC)c23)c1 [Compound 19d]"
class_name = "yes"

